Measured Target: T1, SCAF4-CID R21A (human, UniProt O95104 1-139, R23A)
T1 sequence: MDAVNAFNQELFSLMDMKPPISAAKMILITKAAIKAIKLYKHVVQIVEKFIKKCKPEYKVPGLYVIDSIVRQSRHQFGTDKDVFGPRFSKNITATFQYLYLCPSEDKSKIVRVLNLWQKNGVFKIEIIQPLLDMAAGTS
Method Summary: fluorescence polarization

Binder	Unit String	Kd
GTGGG (ssDNA) [SCAF4_LS (D2_5nt)]	nM	416

Numbers sourced from paper doi:10.1101/2024.01.09.574928.
